test: Test for cupriuretic activity; format: in vivo; settings: at 1 mM/kg

Compound | Cupriuretic activity, % Increase
CC1(C)NC([PH](=O)O)C(C)(C)S1 (racemic) | 308%
CC(C)(S)C(N)P(=O)(O)O (racemic) | 139%
CC(C)(S)C(N)[PH](=O)O (racemic) | 397%
CC1(C)NC(P(=O)(O)O)C(C)(C)S1 (racemic) | 122%

###

experiment: Test for catalytic dismutation of superoxide; type: biochemical; details: test compound: copper glycine ratio of 4:1; read-out: Catalysis of superoxide dismutation, I50
Measured Endpoint: IC50

Compound | Measured Endpoint | Result
CC(C)(S)C(N)[PH](=O)O (racemic) [Compound B] | IC50 | 1.2 µM
CC(C)(S)C(N)P(=O)(O)O (racemic) [Compound A] | IC50 | 1.2 µM
